# assay text: protein stability index of a GFP-peptide fusion (GPS, HEK-293T) (PSI 1-6); higher = more stable;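 note: 24-mer peptide tiles fused after GFP, lentivirally expressed, FACS-sorted into six equal bins by GFP/DsRed ratio, decoded by Illumina sequencing, PSI is the read-weighted mean bin number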
# condition context: treatment: DMSO; c terminus: a fixed tail appended
property measured: protein stability index
// response body must contain only the number

Respond only with protein stability index recorded for GNLQLDCLAQGWKQYQQRAFGWFR [RTP4]
2.3

###

# assay text: protein stability index of a GFP-peptide fusion (GPS, HEK-293T) (PSI 1-6); higher = more stable
# condition context: treatment: MLN4924 1 uM, 8 h; c terminus: a fixed tail appended
Each entry below carries its reported protein stability index.
Output: the number by itself.

>  <sequence record>
DRAAKRLSLESEGAGEGAAASPEL [TPPP]

>  <protein stability index>
5.32

$$$$
>  <sequence record>
QNPEAIAAAAMYTFLPDNFSPAKP [MYORG]

>  <protein stability index>
3.86

$$$$
>  <sequence record>
MALKTSLGSVQFMEQFCWPHLRSF

>  <protein stability index>
2.69

$$$$
>  <sequence record>
VPEEEQAANKGEEKKDDENIPMET [SMARCE1]

>  <protein stability index>
5.68

$$$$
>  <sequence record>
RVILEIDNARLAVDDFRLKYENEL [KRT13]

>  <protein stability index>
2.66

$$$$

State its protein stability index: HPLAQNERCLHMFLQEEAIDRNYV [SNX12]
3.18

Return value of protein stability index for input YRVSDVTKAGHSLELIEPLIKFQV [VDR] , no commentary.
2.12

Supply reported protein stability index belonging to this sequence: ELLALETALGGQCVDRQEVAEITK [TCAP]
4.5

Give the reported value of protein stability index for this record: EQQRCLLLARLRELEQQIWKERDE [TRIM15]
3.29

Provide only the value of recorded protein stability index for GMAFFKMREMFFEDHIDDAKYCGH [CNOT7]
2.36

###

# assay text: protein stability index of a GFP-peptide fusion (GPS, HEK-293T) (PSI 1-6); higher = more stable
# condition context: treatment: MLN4924 1 uM, 8 h; c terminus: a fixed tail appended
Rule: T for protein stability index not less than 3, F for anything less.

Look over these answered cases.
>  <sequence record>
DQGGPVEILPFLYLGSAYHASKCE [DUSP5]

>  <class label>
F

$$$$
>  <sequence record>
VLCLLAADEDDDRDVALQIHFTLI [GADD45A]

>  <class label>
F

$$$$
>  <sequence record>
MRAQAQEQERRERREQAAAAPFPS [TFE3]

>  <class label>
T

$$$$
>  <sequence record>
IKRLWKDSGVQACFNRSREYQLND [GNAI1]

>  <class label>
F

$$$$
>  <sequence record>
APYAAAAAAQSYPGYLPYSPEPPS [IRX6]

>  <class label>
T

$$$$

Kindly determine if protein stability index recorded for AAGELESMGFSARYNFTPDPDFKD [NETO1] is above or exactly 3.
T

Please check the record HCRKCGQAVCGKCSSKRSSYPVMG [WDFY1] and state if its protein stability index is at or above 3.
T

Could you please find out whether RMEEIVEGCTGALHILARDVHNRI [CTNNB1] has protein stability index that meets 3 or exceeds it?
F

Could you please find out whether VSPIQIDGAGRTWQDSDTVKLLVD [TOR1AIP2] has protein stability index that meets 3 or exceeds it?
T

Has NQGLNVMVWNQNGKSPSITFEYTL [ADAMTSL2] a recorded protein stability index greater than or equal to 3?
F

###

# assay text: protein stability index of a GFP-peptide fusion (GPS, HEK-293T) (PSI 1-6); higher = more stable
# condition context: treatment: MLN4924 1 uM, 8 h; c terminus: a fixed tail appended
property measured: protein stability index
Just the number, please.

Below, each entry is followed by its recorded protein stability index result.
>  <sequence record>
EDQKLQVLLTQIESKKHQVETAFE [TRIM15]

>  <property measured>
protein stability index

>  <test value>
4.51

$$$$
>  <sequence record>
KTEQQRRREKAVHRLRVQQAALRA [NOP53]

>  <property measured>
protein stability index

>  <test value>
4.13

$$$$
>  <sequence record>
SQNIQEDDLQQLQLFTEYGRLAMD [ATL3]

>  <property measured>
protein stability index

>  <test value>
4.09

$$$$
>  <sequence record>
SLLNKKADGVKPQTNSTKNSAAAT [CAMK2B]

>  <property measured>
protein stability index

>  <test value>
4.34

$$$$

// switching to the query sequence
Please give measured protein stability index of the following entry: VPTVSRPYSFIEFDTFIQKTKKLY [SEC22B]
2.47

###

protein stability index for assorted sequences
# assay text: protein stability index of a GFP-peptide fusion (GPS, HEK-293T) (PSI 1-6); higher = more stable
# condition context: treatment: DMSO; c terminus: a fixed tail appended
Form rule: numeric answer, no unit written next to it.

>  <sequence record>
QGHLRRLRSRYSVASFKFDAGEVS [MYORG]

>  <test value>
2.93

$$$$
>  <sequence record>
AKKEDKVPVKKQKTRTVFSSTQLC [NANOGP8]

>  <test value>
4.2

$$$$
>  <sequence record>
TQKLSHSTKPSGSPLEEKHDQCKC [MATN2]

>  <test value>
5.15

$$$$
>  <sequence record>
SPVTRTRSLSACNKRVGMYLEGFD [DLC1]

>  <test value>
3

$$$$
>  <sequence record>
SINALLQAEVLSRQITSPVSGING [HNF4A]

>  <test value>
2.7

$$$$

In the following, a different sequence is considered.
Fill in protein stability index for record HRSSRETRDYAPPSRGHAYRDYGH [RBMY1A1]
3.87

###

# assay text: protein stability index of a GFP-peptide fusion (GPS, HEK-293T) (PSI 1-6); higher = more stable
# condition context: treatment: DMSO; c terminus: a fixed tail appended
property measured: protein stability index

Solved cases below.
>  <sequence record>
MITVQLPEVPANENIKGYYIIIVP [PTPRD]

>  <test value>
3

$$$$
>  <sequence record>
FYIGKYFGGVLEYFMIQALNQKTS [RHOBTB3]

>  <test value>
2.96

$$$$

Lab note: next sequence to report on.
Provide one value: measured protein stability index of IYRHRIPSTICFGQGAARGFKSNK [ZNF511]
3

###

# assay text: protein stability index of a GFP-peptide fusion (GPS, HEK-293T) (PSI 1-6); higher = more stable
# condition context: treatment: DMSO; c terminus: a fixed tail appended
Rule: protein stability index of 3 or more gives t; anything lower gives f.

>  <sequence record>
EAIPILRAALKLEPSNKTIHAELS [FKBP8]

>  <class label>
f

$$$$

Please tell me: is the sequence QYPGNYEQQQILIRQLQEQHYQQY [ACBD3] at or over 3 in terms of protein stability index?
t

Kindly determine if protein stability index recorded for KEIDDVIDEIISLESSYNDEMLSY [TFE3] is above or exactly 3.
t

State whether the measured protein stability index reaches 3, counting equality as reaching it, for GDVMFTGTADGRVVKLENGEIETI [APMAP]
t

Threshold query (protein stability index >= 3) on KTEQQRRREKAVHRLRVQQAALRA [NOP53]
t

Exam item: decide whether the reported protein stability index for RASATTTITTAAATSVTVPGAGVP [ZBTB22] is at least 3.
t

###

# assay text: protein stability index of a GFP-peptide fusion (GPS, HEK-293T) (PSI 1-6); higher = more stable
# condition context: treatment: MLN4924 1 uM, 8 h; c terminus: a fixed tail appended
Readings of protein stability index for the listed sequences
I only need the number, thanks.

Reference set, count: 5
>  <sequence record>
FPELGYSYGGGSASSQHSEGSRSS [DVL3]

>  <protein stability index>
4.03

$$$$
>  <sequence record>
GTFCSLDICLAQLEELGTLNVFQT [PTPN9]

>  <protein stability index>
2.24

$$$$
>  <sequence record>
ALLIVDSATALYRTDYSGRGELSA [RAD51]

>  <protein stability index>
2.27

$$$$
>  <sequence record>
RRHPGLGKAFPSGCSAVSEPASES [TRAF3IP2]

>  <protein stability index>
4.3

$$$$
>  <sequence record>
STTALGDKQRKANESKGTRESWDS [ELOA2]

>  <protein stability index>
4.34

$$$$

Provide only the value of recorded protein stability index for SGTCSPLRHSFQKQQREKTRWLNS [ADD1]
3.11

Identify measured protein stability index associated with IGLWGLAVKGSLGSDLGGPLPTDP [TSPAN10]
2.39

###

As shown below, each of these sequences has a reported protein stability index value.
# assay text: protein stability index of a GFP-peptide fusion (GPS, HEK-293T) (PSI 1-6); higher = more stable
# condition context: treatment: MLN4924 1 uM, 8 h; c terminus: a fixed tail appended
Please reply with the number alone, leaving off any unit.

Recorded protein stability index, per entry:
>  <sequence record>
NAEMVQQTTYLEDRPMFMLQCAME [LOXL2]

>  <protein stability index>
3

$$$$
>  <sequence record>
GTVHCQIVSTQITRPSGNNGNRRR [PHTF1]

>  <protein stability index>
4.51

$$$$
>  <sequence record>
KNTTYDLIANIVHDGKPSEGSYRI [USP39]

>  <protein stability index>
2.52

$$$$
>  <sequence record>
TTEVNAWLVHRDPEGSVSGSQPNS [NFE2L1]

>  <protein stability index>
4.64

$$$$
>  <sequence record>
MTVKQYEAARLEYDAYRTDLEELS [ARFIP2]

>  <protein stability index>
3.97

$$$$

Output protein stability index of YQASAMMVESRYALLIVDSATALY [RAD51]
2.89

For TSENLKLVHIVCHKKTTHKLNCDP [DFFB] , write its protein stability index.
2.97

Values were extracted from the supplement of paper PMC10567573.
